target: human recombinant 5-HT2C receptor (Homo sapiens (Human)); assay: biochemical; assay type: binding; conditions: [3H]-Mesulergine 1 nmol/L, Jump-In HEK cell membrane; read-out: human serotonin 5-HT2C receptor binding activity, Ki
Sequence (P28335 whole entry, looked up): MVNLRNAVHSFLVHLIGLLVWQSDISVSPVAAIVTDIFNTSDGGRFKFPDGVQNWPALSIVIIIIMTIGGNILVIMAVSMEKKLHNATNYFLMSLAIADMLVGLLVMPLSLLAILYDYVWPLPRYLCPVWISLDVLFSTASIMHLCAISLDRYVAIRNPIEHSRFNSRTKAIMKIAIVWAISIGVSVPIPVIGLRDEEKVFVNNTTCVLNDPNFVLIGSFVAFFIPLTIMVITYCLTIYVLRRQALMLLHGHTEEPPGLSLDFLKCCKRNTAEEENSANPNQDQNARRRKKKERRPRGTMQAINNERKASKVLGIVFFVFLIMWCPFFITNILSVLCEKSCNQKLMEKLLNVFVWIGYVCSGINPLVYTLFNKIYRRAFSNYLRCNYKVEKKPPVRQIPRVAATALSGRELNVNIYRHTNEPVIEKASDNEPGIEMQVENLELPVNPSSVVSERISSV
Recorded pKi values for a group of compounds are listed next.
Conceptually, pKi converts a concentration in mol/L into minus its log10.

// known answers, use as guide
Problem: Recorded pKi for `CCCOc1ccc(CNC(=O)N(Cc2cc(C)n(C)n2)[C@H]2CCN(C)CC23CC3)cc1` , please?
Result: 8.96

Problem: Recorded pKi for `CCCOc1ccc(CNC(=O)N(Cc2ccn(C)c2)[C@H]2CCNC[C@H]2F)cc1` , please?
Result: 8.49

***
Problem: Recorded pKi for `CC(C)COc1ccc(COC(=O)N(Cc2ccc(F)cn2)C2CCN(C)CC2)cc1` , please?
Result: 8.64

* * *

target: human recombinant 5-HT2A receptor (Homo sapiens (Human), UniProt P28223); assay: biochemical; assay type: binding; details: [3H]-Ketanserin 3 nmol/L, Jump-In HEK cell membrane; read-out: human serotonin 5-HT2A receptor binding activity, Ki
readout kind: Ki

// known answers, use as guide
Problem: Recorded Ki for CC(C)COc1ccc(CNC(=O)N(Cc2ccn(C)c2)[C@H]2CCNC[C@H]2F)cc1 [Compound I-124] , please?
Result: 0.69 nM

Problem: Recorded Ki for CN1CCC(N(Cc2ccc(F)cn2)C(=O)NCc2ccccc2O)CC1 [Compound I-076] , please?
Result: 62 nM

Problem: Recorded Ki for CCc1ccc(CNC(=O)N(Cc2ccc(F)cn2)C2CCN(C)CC2)cc1 [Compound I-116] , please?
Result: 1.45 nM

Problem: Recorded Ki for CC(C)COc1ccc(CC(=O)N(Cc2ccc(F)cn2)C2CCN(C)CC2)cc1 [Compound I-068] , please?
Result: 6.52 nM

Problem: Recorded Ki for CC(C)CNc1ccc(CNC(=O)N(Cc2ccc(F)cn2)[C@H]2CCNC[C@H]2F)cc1 [Compound I-129] , please?
Result: 0.85 nM

***
Problem: Recorded Ki for CC(C)COc1ccc(CNC(=O)N(Cc2ccc(F)cn2)[C@@H]2CCN(C)C[C@@H]2F)cc1 [Compound I-085] , please?
Result: 23.8 nM

Problem: Recorded Ki for CCCOc1ccc(CNC(=O)N(Cc2cc(C)n(C)n2)[C@H]2CCN(C)C[C@H]2F)cc1 [Compound I-139] , please?
Result: 2.93 nM

Problem: Recorded Ki for CCCOc1ccc(CNC(=O)N(Cc2ccn(C)c2)[C@H]2CCNC[C@H]2F)cc1 [Compound I-134] , please?
Result: 0.475 nM

Problem: Recorded Ki for CC(C)COc1ccc(COC(=O)N(Cc2ccc(F)cn2)C2CCN(C)CC2)cc1 [Compound I-042] , please?
Result: 1.15 nM

* * *

target: hERG channel (IKr) (Homo sapiens (Human), UniProt Q12809); test: hERG test (automated whole cell patch clamp, IKr); format: cell-based; details: CHO cells expressing hERG channel, pH 7.4, compound concentration of 3 μmol/L, read-out: hERG inhibition rate (tail peak current IKr)
Sequence (Q12809 whole entry): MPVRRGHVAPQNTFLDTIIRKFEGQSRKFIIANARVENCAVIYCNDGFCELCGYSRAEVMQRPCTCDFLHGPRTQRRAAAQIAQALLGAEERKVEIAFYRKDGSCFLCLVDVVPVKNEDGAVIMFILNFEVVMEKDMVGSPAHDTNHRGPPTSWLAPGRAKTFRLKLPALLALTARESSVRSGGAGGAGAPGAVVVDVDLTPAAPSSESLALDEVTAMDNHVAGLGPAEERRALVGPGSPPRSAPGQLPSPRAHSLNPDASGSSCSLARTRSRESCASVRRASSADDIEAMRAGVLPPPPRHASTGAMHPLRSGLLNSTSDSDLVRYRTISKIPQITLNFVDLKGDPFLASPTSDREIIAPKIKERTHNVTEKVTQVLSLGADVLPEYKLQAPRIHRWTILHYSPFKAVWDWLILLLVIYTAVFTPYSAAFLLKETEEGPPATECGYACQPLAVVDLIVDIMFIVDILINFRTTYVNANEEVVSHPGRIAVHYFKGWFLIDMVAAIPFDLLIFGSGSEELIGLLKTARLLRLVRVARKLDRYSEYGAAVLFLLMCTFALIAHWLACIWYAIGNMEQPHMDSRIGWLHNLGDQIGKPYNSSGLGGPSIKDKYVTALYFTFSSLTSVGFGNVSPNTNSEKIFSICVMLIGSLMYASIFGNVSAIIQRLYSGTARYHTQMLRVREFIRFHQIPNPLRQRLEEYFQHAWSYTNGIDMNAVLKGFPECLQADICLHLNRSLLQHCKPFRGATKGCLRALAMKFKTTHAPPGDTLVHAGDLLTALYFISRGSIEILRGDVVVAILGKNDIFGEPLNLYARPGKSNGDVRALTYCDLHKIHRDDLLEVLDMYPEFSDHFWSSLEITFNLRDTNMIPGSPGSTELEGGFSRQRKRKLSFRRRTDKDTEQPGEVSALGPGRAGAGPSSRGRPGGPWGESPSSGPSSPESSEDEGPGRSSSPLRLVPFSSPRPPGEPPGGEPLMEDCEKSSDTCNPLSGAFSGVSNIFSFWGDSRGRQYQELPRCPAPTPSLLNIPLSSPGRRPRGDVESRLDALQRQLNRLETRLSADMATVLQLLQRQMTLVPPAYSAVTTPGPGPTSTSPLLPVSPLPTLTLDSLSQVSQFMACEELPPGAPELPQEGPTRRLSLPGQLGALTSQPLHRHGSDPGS
Recorded inhibition at 3 μmol/L values for a group of molecules are listed next.
Please answer using a numeric value trailed by its unit.

Problem: Recorded inhibition at 3 μmol/L for CCCOc1ccc(CNC(=O)N(Cc2ccn(C)c2)[C@H]2CCN(C)C[C@H]2F)cc1 [Compound I-141] , please?
Result: 49.3%

Problem: Recorded inhibition at 3 μmol/L for CCCOc1ccc(CNC(=O)N(Cc2cc(C)n(C)n2)[C@H]2CCN(C)C[C@H]2F)cc1 [Compound I-139] , please?
Result: 14.2%

Problem: Recorded inhibition at 3 μmol/L for CC(C)CNc1ccc(CNC(=O)N(Cc2ccc(F)cn2)[C@H]2CCNC[C@H]2F)cc1 [Compound I-129] , please?
Result: 31.4%

Problem: Recorded inhibition at 3 μmol/L for Cc1cc(CN(C(=O)NCc2ccc(OCC(C)C)cc2)[C@H]2CCNC[C@H]2F)nn1C [Compound I-133] , please?
Result: 6.6%

Problem: Recorded inhibition at 3 μmol/L for CCCOc1ccc(CNC(=O)N(Cc2ccn(C)c2)[C@H]2CCNC[C@H]2F)cc1 [Compound I-134] , please?
Result: 31.2%

Source listed as patent US12527775B2.
